# Test system: MiaPaCa2
# Test Summary: Chemosensitivity, 96 h continuous exposure, MTT assay
# Type: cell-based, human
# Measurement Parameters: ratio of SI (MCF 10A), MiaPaCa2
Can you tell me Selectivity indices relative to MCF10A, Ratio + anion:no anion for the items I'm about to list?
Give bare numbers.

Compound: O=P([O-])([O-])Oc1ccccc1.[Cu+2].[Cu+2].[Cu+2].c1ccc(-c2csc(NCCN(CCNc3nc(-c4ccccn4)cs3)CCNc3nc(-c4ccccn4)cs3)n2)nc1.c1ccc(-c2csc(NCCN(CCNc3nc(-c4ccccn4)cs3)CCNc3nc(-c4ccccn4)cs3)n2)nc1 [[L2Cu3(O3POPh)]4+]
Measured Result: 0.267

# batch: return Selectivity indices relative to MCF10A, Ratio + anion:no anion for each of the 4 compounds below
1. CC(=O)[O-].CC(=O)[O-].CC(=O)[O-].O=P([O-])([O-])[O-].[Zn+2].[Zn+2].[Zn+2].c1ccc(-c2csc(NCCN(CCNc3nc(-c4ccccn4)cs3)CCNc3nc(-c4ccccn4)cs3)n2)nc1.c1ccc(-c2csc(NCCN(CCNc3nc(-c4ccccn4)cs3)CCNc3nc(-c4ccccn4)cs3)n2)nc1 [[L2Zn3(PO4)]3+]
2. O=S(=O)([O-])[O-].[Cu+2].[Cu+2].[Cu+2].c1ccc(-c2csc(NCCN(CCNc3nc(-c4ccccn4)cs3)CCNc3nc(-c4ccccn4)cs3)n2)nc1.c1ccc(-c2csc(NCCN(CCNc3nc(-c4ccccn4)cs3)CCNc3nc(-c4ccccn4)cs3)n2)nc1 [[L2Cu3(SO4)]4+]
3. O=S(=O)(O)O.[Zn+2].[Zn+2].[Zn+2].c1ccc(-c2csc(NCCN(CCNc3nc(-c4ccccn4)cs3)CCNc3nc(-c4ccccn4)cs3)n2)nc1.c1ccc(-c2csc(NCCN(CCNc3nc(-c4ccccn4)cs3)CCNc3nc(-c4ccccn4)cs3)n2)nc1 [[L2Zn3(SO4)]4+]
4. [Cu+2].[Cu+2].[Cu+2].c1ccc(-c2csc(NCCN(CCNc3nc(-c4ccccn4)cs3)CCNc3nc(-c4ccccn4)cs3)n2)nc1.c1ccc(-c2csc(NCCN(CCNc3nc(-c4ccccn4)cs3)CCNc3nc(-c4ccccn4)cs3)n2)nc1 [[L2Cu3]6+]

Result ::
0.118
0.231
0.108
1

Can you give me Selectivity indices relative to MCF10A, Ratio + anion:no anion for all of these, one by one?
1. O=P([O-])([O-])[O-].[Cu+2].[Cu+2].[Cu+2].c1ccc(-c2csc(NCCN(CCNc3nc(-c4ccccn4)cs3)CCNc3nc(-c4ccccn4)cs3)n2)nc1.c1ccc(-c2csc(NCCN(CCNc3nc(-c4ccccn4)cs3)CCNc3nc(-c4ccccn4)cs3)n2)nc1 [[L2Cu3(PO4)]3+]
2. O=P(O)(O)Oc1ccccc1.[Zn+2].[Zn+2].[Zn+2].c1ccc(-c2csc(NCCN(CCNc3nc(-c4ccccn4)cs3)CCNc3nc(-c4ccccn4)cs3)n2)nc1.c1ccc(-c2csc(NCCN(CCNc3nc(-c4ccccn4)cs3)CCNc3nc(-c4ccccn4)cs3)n2)nc1 [[L2Zn3(O3POPh)]4+]
3. CC(=O)[O-].CC(=O)[O-].CC(=O)[O-].CC(=O)[O-].CC(=O)[O-].CC(=O)[O-].[Zn+2].[Zn+2].[Zn+2].c1ccc(-c2csc(NCCN(CCNc3nc(-c4ccccn4)cs3)CCNc3nc(-c4ccccn4)cs3)n2)nc1.c1ccc(-c2csc(NCCN(CCNc3nc(-c4ccccn4)cs3)CCNc3nc(-c4ccccn4)cs3)n2)nc1 [[L2Zn3]6+]

Result ::
1: 0.100; 2: 0.410; 3: 1
